Tested on: OVCAR-8 ovarian
Assay: NCI tumour cell line growth inhibition, 48 h
Hi there, I'd appreciate the recorded TGI for every entry that follows.

Query: So what does the record say about TGI for "Cc1cc(O)c2c3c1C(=O)Oc1c(CO)c(O)c(C(=O)O)c(c1O3)C=NN=Cc1c3c(c(CO)c(O)c1C(=O)O)OC(=O)c1c(C)cc(O)c(c1O3)C=NN=C2" ?
Response: > 100 µM

Query: Ok, now "COC(=O)C1=C(O)[C@H](C(=O)OC)C2(O)[C@@H](C(=O)OC)[C@H]1C[C@@H](c1ccc(OC(=O)n3ccnc3)cc1)[C@@H]2C(=O)OC"
Response: 36.4 µM

Query: // repeat for COc1ccc(OC)c(N2C(=O)/C(=C\c3ccccc3)SC2c2cc(OC)c(OC)c(OC)c2)c1 (centres undefined) and report
Response: > 100 µM

Query: Field entry: Cc1ccc(-c2cc(C(=O)N3N=C(c4ccc(N)cc4)CC3c3ccc(Cl)cc3)c3ccccc3n2)cc1 (centres undefined)
Response: > 100 µM

Query: Also, "CN=C(NN)NS(=O)(=O)c1cc(C)c(Cl)cc1S" please.
Response: > 100 µM

Query: Ok, now "N#Cc1c(N)nc(Nc2cccc3ccccc23)c(C#N)c1C#N"
Response: > 10 µM

Query: Now try CCOC(=O)c1cc2c(c3ccsc13)C1(C)CCC3c4ccc(OC)cc4CCC3C1C2 (centres undefined) .
Response: > 100 µM

Query: // same read-out, input: "COc1ccc2cc3[n+](cc2c1O)CCc1cc2c(cc1-3)OCO2"
Response: > 100 µM

Query: Query CC(C)C(Br)CC/C(CBr)=C(\Cl)CCl (centres undefined) next
Response: 9.82 µM
